target: Porcine ventricle myofibrils (ventricular myosin ATPase) (Sus scrofa, UniProt P79293); construct: Myofibrils from porcine cardiac muscle was isolated from the left ventricle of Yucatan minipigs; tissue Exemplar Genetics; host or cells: left ventricle of Yucatan minipigs, myofibrils prepared in house; test: Myofibril ATPase assay, porcine ventricle myofibrils; type: biochemical, porcine (Yucatan minipigs); settings: porcine ventricle myofibrils; Y75 value
Sequence (P79293 whole entry): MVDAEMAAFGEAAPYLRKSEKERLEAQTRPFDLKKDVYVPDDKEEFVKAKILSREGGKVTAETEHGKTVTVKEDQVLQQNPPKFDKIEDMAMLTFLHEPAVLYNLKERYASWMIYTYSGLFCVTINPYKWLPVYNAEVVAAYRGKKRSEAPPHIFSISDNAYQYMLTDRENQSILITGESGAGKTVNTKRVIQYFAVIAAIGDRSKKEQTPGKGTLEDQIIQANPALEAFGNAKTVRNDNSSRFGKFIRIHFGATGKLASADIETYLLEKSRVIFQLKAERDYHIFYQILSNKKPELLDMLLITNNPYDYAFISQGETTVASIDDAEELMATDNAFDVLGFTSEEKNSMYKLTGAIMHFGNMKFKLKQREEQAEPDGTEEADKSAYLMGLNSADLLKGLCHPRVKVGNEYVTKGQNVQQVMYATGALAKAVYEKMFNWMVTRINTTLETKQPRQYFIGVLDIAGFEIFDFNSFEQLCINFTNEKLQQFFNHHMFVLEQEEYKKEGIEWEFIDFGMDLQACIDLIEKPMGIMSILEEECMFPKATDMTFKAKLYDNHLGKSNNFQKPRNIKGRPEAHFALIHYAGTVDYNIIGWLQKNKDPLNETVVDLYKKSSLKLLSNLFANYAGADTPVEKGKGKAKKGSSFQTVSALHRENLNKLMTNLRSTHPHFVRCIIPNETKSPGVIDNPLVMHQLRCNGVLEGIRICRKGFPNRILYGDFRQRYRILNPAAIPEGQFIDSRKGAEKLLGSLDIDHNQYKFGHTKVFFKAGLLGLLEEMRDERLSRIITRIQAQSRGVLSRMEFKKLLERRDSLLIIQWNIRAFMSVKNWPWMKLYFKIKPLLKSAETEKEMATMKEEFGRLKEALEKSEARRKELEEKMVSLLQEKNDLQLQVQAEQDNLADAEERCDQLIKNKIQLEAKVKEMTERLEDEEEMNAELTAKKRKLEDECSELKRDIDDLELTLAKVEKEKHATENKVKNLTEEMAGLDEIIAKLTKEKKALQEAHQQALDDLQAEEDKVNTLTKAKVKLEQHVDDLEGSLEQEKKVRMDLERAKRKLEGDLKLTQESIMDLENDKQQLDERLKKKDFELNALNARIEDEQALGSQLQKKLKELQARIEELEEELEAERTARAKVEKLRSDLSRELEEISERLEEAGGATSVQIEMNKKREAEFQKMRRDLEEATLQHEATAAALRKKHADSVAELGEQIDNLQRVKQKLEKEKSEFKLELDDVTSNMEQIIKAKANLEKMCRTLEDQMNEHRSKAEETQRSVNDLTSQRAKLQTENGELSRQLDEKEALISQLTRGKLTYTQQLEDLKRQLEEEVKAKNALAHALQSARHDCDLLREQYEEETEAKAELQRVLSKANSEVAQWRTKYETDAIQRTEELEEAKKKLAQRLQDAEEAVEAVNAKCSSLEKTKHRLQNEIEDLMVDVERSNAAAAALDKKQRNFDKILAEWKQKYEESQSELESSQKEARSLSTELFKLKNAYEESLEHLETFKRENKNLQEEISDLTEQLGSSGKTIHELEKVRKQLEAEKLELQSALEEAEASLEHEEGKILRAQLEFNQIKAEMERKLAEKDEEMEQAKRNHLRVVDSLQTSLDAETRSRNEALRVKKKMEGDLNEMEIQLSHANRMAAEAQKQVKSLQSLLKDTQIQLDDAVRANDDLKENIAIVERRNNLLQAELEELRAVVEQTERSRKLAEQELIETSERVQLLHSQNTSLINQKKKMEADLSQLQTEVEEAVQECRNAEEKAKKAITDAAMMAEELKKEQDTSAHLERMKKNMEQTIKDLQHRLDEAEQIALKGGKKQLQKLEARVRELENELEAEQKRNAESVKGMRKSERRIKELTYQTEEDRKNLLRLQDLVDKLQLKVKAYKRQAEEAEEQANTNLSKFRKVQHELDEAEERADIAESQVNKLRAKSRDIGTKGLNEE
Parameter: Ventricular EC25 (µM)
Use µM as the unit, but write only the number.

Below: 5 compounds and their reported Ventricular EC25.
[
  {
    "Compound": "Cc1ccccc1[C@@H](C)NC(=O)Cc1c(C)c2c(C)nccc2[nH]c1=O (single isomer, unassigned) [compound 326]",
    "Unit abbreviation": "µM",
    "Ventricular EC25": 100.00
  },
  {
    "Compound": "Cc1nccc2[nH]c(=O)c(CC(=O)N[C@@H](C)c3ccc(C#N)cc3F)c(C)c12 (single isomer, unassigned) [compound 256]",
    "Unit abbreviation": "µM",
    "Ventricular EC25": 0.19
  },
  {
    "Compound": "Cc1c(CC(=O)N[C@@H](C)c2ccc(F)cc2F)c(=O)[nH]c2ccnc(NC3CC3)c12 [compound 276]",
    "Unit abbreviation": "µM",
    "Ventricular EC25": 15.06
  },
  {
    "Compound": "Cc1c(CC(=O)N[C@@H](C)c2ccc(F)cc2F)c(=O)[nH]c2ccnc(NCC(C)C)c12 [compound 277]",
    "Unit abbreviation": "µM",
    "Ventricular EC25": 84.29
  },
  {
    "Compound": "Cc1nccc2[nH]c(=O)c(CC(=O)N[C@H](C)c3ccc(O)cc3)c(C)c12 (single isomer, unassigned) [compound 328]",
    "Unit abbreviation": "µM",
    "Ventricular EC25": 100.00
  }
]

Read the next record carefully.
# Ventricular EC25 (compound: COc1nccc2[nH]c(=O)c([C@@H](C)C(=O)N[C@@H](C)c3ccc(F)cc3F)c(C(F)(F)F)c12 (single isomer, unassigned) [compound 425] ) is 100.00

* * *

Measured Ventricular EC25 by item
target: Porcine ventricle myofibrils (ventricular myosin ATPase) (Sus scrofa, UniProt P79293); construct: Myofibrils from porcine cardiac muscle was isolated from the left ventricle of Yucatan minipigs; tissue Exemplar Genetics; host or cells: left ventricle of Yucatan minipigs, myofibrils prepared in house; experiment: Myofibril ATPase assay, porcine ventricle myofibrils; assay type: biochemical, porcine (Yucatan minipigs); conditions: porcine ventricle myofibrils; Y75 value
Mention the unit after the number when you answer.

[
  {
    "Compound": "Cc1nccc2[nH]c(=O)c(CC(=O)N[C@H](C)c3cccnc3O)c(C)c12 (single isomer, unassigned)",
    "Parameter": "Ventricular EC25",
    "Recorded result": "100.00 µM"
  },
  {
    "Compound": "Cc1c(CC(=O)N[C@H](C)c2ncc(C#N)cc2F)c(=O)[nH]c2ccnc(C#N)c12 (single isomer, unassigned)",
    "Parameter": "Ventricular EC25",
    "Recorded result": "10.63 µM"
  },
  {
    "Compound": "Cc1nccc2[nH]c(=O)c([C@@H](C)C(=O)N[C@H](C)c3ncc(C#N)cc3F)c(C)c12 (single isomer, unassigned)",
    "Parameter": "Ventricular EC25",
    "Recorded result": "100.00 µM"
  },
  {
    "Compound": "C[C@H](NC(=O)[C@@H](C)c1cc2c(Br)nccc2[nH]c1=O)c1ccc(F)cc1F (single isomer, unassigned)",
    "Parameter": "Ventricular EC25",
    "Recorded result": "90.74 µM"
  },
  {
    "Compound": "COc1cccc([C@@H](C)NC(=O)Cc2c(C)c3c(C)nccc3[nH]c2=O)c1 (single isomer, unassigned)",
    "Parameter": "Ventricular EC25",
    "Recorded result": "100.00 µM"
  },
  {
    "Compound": "COc1nccc2[nH]c(=O)c(CC(=O)N[C@@H](C)c3ccc(F)cc3F)cc12",
    "Parameter": "Ventricular EC25",
    "Recorded result": "3.84 µM"
  }
]

Consider now this further compound.
Value of measured Ventricular EC25 for the entry CCOc1nccc2[nH]c(=O)c(CC(=O)N[C@@H](C)c3ccc(F)cc3F)c(C)c12 : 0.31 µM

* * *

Examples of compounds with documented Atrial EC25 follow.
system: Porcine atria myofibrils (atrial myosin ATPase); experiment: Myofibril ATPase assay, porcine atria myofibrils; assay type: biochemical; details: Y75 value (no ‡ mark); porcine atria myofibrils
The figure you give is taken to be in nM; do not add the unit.

[
  {
    "Compound": "Cc1c(CC(=O)N[C@@H](C)c2ncc(C#N)cn2)c(=O)[nH]c2ccc(F)cc12 [compound 1071]",
    "Recorded result": 5290
  },
  {
    "Compound": "O=C(Cc1cc2cc(F)ccc2[nH]c1=O)N1CC[C@H]2C[C@@H]1c1ccccc12 (single isomer, unassigned) [compound 4502]",
    "Recorded result": 1280
  },
  {
    "Compound": "Cc1c(CC(=O)N[C@@H](C)c2ccc(F)cc2F)c(=O)[nH]c2cccc(F)c12 [compound 130]",
    "Recorded result": 20
  }
]

// moving on: another record for Atrial EC25
Lab book: Atrial EC25 of C[C@H](NC(=O)Cc1cc2c(F)c(F)ccc2[nH]c1=O)c1ncc(F)cc1F [compound 34] noted as 20

* * *

target: Porcine ventricle myofibrils (ventricular myosin ATPase) (Sus scrofa); construct: Myofibrils from porcine cardiac muscle was isolated from the left ventricle of Yucatan minipigs; tissue Exemplar Genetics; host or cells: left ventricle of Yucatan minipigs, myofibrils prepared in house; test: Myofibril ATPase assay, porcine ventricle myofibrils; assay type: biochemical, porcine (Yucatan minipigs); conditions: Y75 value (no ‡ mark); porcine ventricle myofibrils
// boundary case: Ventricular EC25 equal to 1000 nM maps to NO; strictly smaller maps to YES

Study these solved cases before continuing.
[
  {
    "Compound": "Cc1c(CC(=O)N[C@@H]2COCc3cc(C#N)cnc32)c(=O)[nH]c2ccc(F)cc12 [compound 1056]",
    "Tested system": "Porcine ventricle myofibrils (ventricular myosin ATPase) (Sus scrofa)",
    "Class": "NO"
  },
  {
    "Compound": "Cc1c(CC(=O)N[C@H](C)c2ccc(C#N)nn2)c(=O)[nH]c2cc(F)c(F)cc12 [compound 1042]",
    "Tested system": "Porcine ventricle myofibrils (ventricular myosin ATPase) (Sus scrofa)",
    "Class": "NO"
  },
  {
    "Compound": "C[C@H](NC(=O)Cc1cc2cc(F)c(F)cc2[nH]c1=O)c1ncc(C#N)cc1F (single isomer, unassigned) [compound 4]",
    "Tested system": "Porcine ventricle myofibrils (ventricular myosin ATPase) (Sus scrofa)",
    "Class": "YES"
  },
  {
    "Compound": "C[C@H](NC(=O)Cc1c(C#N)c2cc(F)ccc2[nH]c1=O)c1ncc(C#N)cc1F [compound 1095]",
    "Tested system": "Porcine ventricle myofibrils (ventricular myosin ATPase) (Sus scrofa)",
    "Class": "YES"
  },
  {
    "Compound": "Cc1c(CC(=O)N[C@@H](C)c2ccc(C#N)cc2F)c(=O)[nH]c2ccc(F)c(F)c12 [compound 66]",
    "Tested system": "Porcine ventricle myofibrils (ventricular myosin ATPase) (Sus scrofa)",
    "Class": "YES"
  },
  {
    "Compound": "Cc1c(CC(=O)N[C@H](C)c2ncc(C#N)cc2F)c(=O)[nH]c2ccc(F)c(F)c12 [compound 41]",
    "Tested system": "Porcine ventricle myofibrils (ventricular myosin ATPase) (Sus scrofa)",
    "Class": "YES"
  }
]

We next turn to a different compound, shown below.
Input line: A record lists C[C@H](NC(=O)Cc1cc2c(C#N)cccc2[nH]c1=O)c1ncc(C#N)cn1 (single isomer, unassigned) [compound 2038] . Is its Ventricular EC25 below 1000 nM?
Output line: NO

* * *

Target: Porcine ventricle myofibrils (ventricular myosin ATPase) (Sus scrofa, UniProt P79293)
Construct: Myofibrils from porcine cardiac muscle was isolated from the left ventricle of Yucatan minipigs; tissue Exemplar Genetics; host or cells: left ventricle of Yucatan minipigs, myofibrils prepared in house
Assay: Myofibril ATPase assay, porcine ventricle myofibrils
Assay type: biochemical, porcine (Yucatan minipigs)
Details: Y75 value (no ‡ mark); porcine ventricle myofibrils
Protocol: Example 1. Myofibril ATPase Assay Myofibril ATPase assays are known in the art to be useful in evaluating small molecules for the treatment of HCM and other cardiac indications. Myosin ATPase activity is assessed by using a coupled reaction system, in which ADP generated by the myosin ATPase function is coupled to the disappearance of NADH through the pyruvate kinase/lactate dehydrogenase (PK-LDH) system. […]
Parameter: Ventricular EC25
Record the result as a number with its unit.

Previously resolved entries follow.
[
  {
    "Molecule": "C[C@H](NC(=O)Cc1cc2c(F)c(F)ccc2[nH]c1=O)c1ncc(C#N)cn1 (single isomer, unassigned) [compound 2072]",
    "Ventricular EC25": "11.13 µM"
  },
  {
    "Molecule": "Cc1c(CC(=O)N[C@H](C)c2ccc(C#N)nn2)c(=O)[nH]c2ccc(F)cc12 [compound 1119]",
    "Ventricular EC25": "1.18 µM"
  },
  {
    "Molecule": "Cc1c(CC(=O)N[C@H](C)c2ncc(C#N)cc2F)c(=O)[nH]c2ccc(F)cc12 [compound 1106]",
    "Ventricular EC25": "0.49 µM"
  },
  {
    "Molecule": "Cc1c(CC(=O)N[C@H](C)c2ccc(C#N)cn2)c(=O)[nH]c2cc(F)ccc12 [compound 1072]",
    "Ventricular EC25": "36.86 µM"
  },
  {
    "Molecule": "Cc1cc([C@@H](C)NC(=O)Cc2c(C)c3cc(F)ccc3[nH]c2=O)ncc1F [compound 1060]",
    "Ventricular EC25": "100.00 µM"
  },
  {
    "Molecule": "Cc1c(C(F)(F)C(=O)N[C@@H](C)c2ncc(C#N)cc2F)c(=O)[nH]c2ccc(F)c(C#N)c12 (single isomer, unassigned) [compound 4836]",
    "Ventricular EC25": "0.15 µM"
  }
]

Attention now shifts to the item below.
Ventricular EC25 reported for this molecule Cc1c(F)ccc2[nH]c(=O)c(CC(=O)N[C@H](C)c3ncc(F)cc3F)c(C#N)c12 [compound 1147] : 0.94 µM
